# test-target: WT-TTR (Homo sapiens, UniProt P02766)
# Construct: made in house
# test: Stagnant acid-mediated TTR aggregation (fibril formation) assay, turbidity at 340 nm
# Format: biochemical
# test-settings: pH 4.4, compound 100 μM, WT-TTR 7.2 μM, pH 4.4, 37° C.; read-out: % Inhibition
Mark Satisfied for reported inhibition at 100 µM of 20% or greater; mark Not satisfied for anything smaller.

{"compound": "Cc1nc2ccc(Cl)cc2c(O)c1CN1CCCC1 [Compound 4358-1240]", "group-label": "Not satisfied"}
{"compound": "CSC1=NSC2=NC(=O)/C(=C\\c3ccc[nH]3)C(=N)N12 [Compound C146-0661]", "group-label": "Not satisfied"}
{"compound": "CSC1=NSC2=NC(=O)/C(=C\\c3ccc(Cl)cc3)C(=N)N12 [Compound C146-0181]", "group-label": "Satisfied"}
{"compound": "CCc1ccc(Oc2cc(F)nc(N)n2)cc1 [Compound 1544-0079]", "group-label": "Not satisfied"}
{"compound": "O=C(O)C1CSC(c2ccc(Cl)c(Cl)c2)N1 (stereo not shown) [Compound K085-0014]", "group-label": "Not satisfied"}
{"compound": "Cc1ccc2nc(Nc3nc(O)c4ccccc4n3)nc(C)c2c1 [Compound 5594-0187]", "group-label": "Satisfied"}
{"compound": "O=C(O)C1CSC(c2ccc([N+](=O)[O-])cc2)N1 (stereo not shown) [Compound K085-0004]", "group-label": "Not satisfied"}
{"compound": "COc1cc(/C=C2\\SC(=S)N(c3ccc(O)cc3)C2=O)ccc1O [Compound 2189-0711]", "group-label": "Not satisfied"}
{"compound": "Cn1c(=O)c2c(nc(Oc3ccc(-n4cnnn4)cc3)n2C)n(C)c1=O [Compound 3615-0252]", "group-label": "Not satisfied"}
{"compound": "O=c1c2sccc2n(Cc2ccc(F)cc2Cl)c(=O)n1-c1cc(F)ccc1F [Compound C241-0192]", "group-label": "Not satisfied"}
{"compound": "O=C(O)C1CSC(c2c(F)cccc2Cl)N1 (stereo not shown) [Compound K085-0006]", "group-label": "Satisfied"}
{"compound": "Cc1ccc2nc(-c3ccc(Cl)s3)c(Nc3ccc(Cl)cc3)n2c1 [Compound C239-0730]", "group-label": "Not satisfied"}
{"compound": "O=C1OC(/C=C/c2ccc(Cl)cc2Cl)=NC/1=C\\c1cccs1 [Compound K088-1892]", "group-label": "Not satisfied"}
{"compound": "Cc1ccc(C2NC(C(=O)O)CS2)cc1 (stereo not shown) [Compound K085-0026]", "group-label": "Satisfied"}
{"compound": "Cc1ccn2c(Nc3ccc(F)cc3)c(-c3ccccn3)nc2c1 [Compound C273-0218]", "group-label": "Not satisfied"}
{"compound": "O=C(O)C1CSC(c2ccc(Cl)cc2Cl)N1 (stereo not shown) [Compound K085-0018]", "group-label": "Satisfied"}
{"compound": "COc1cc(C2NC(C(=O)O)CS2)ccc1O (stereo not shown) [Compound K085-0027]", "group-label": "Not satisfied"}
{"compound": "CSC1=NSC2=NC(=O)/C(=C\\c3ccc(O)cc3)C(=N)N12 [Compound C146-0184]", "group-label": "Satisfied"}
{"compound": "O=C(CSc1nccn1-c1cccc(Cl)c1)Nc1cccc2ccccc12 [Compound C262-0464]", "group-label": "Not satisfied"}
{"compound": "Cc1nc2c(C(=O)NCCC(C)C)cnn2c(O)c1Cc1ccccc1F [Compound C218-0295]", "group-label": "Satisfied"}
{"compound": "Cc1ccsc1/C=c1\\sc2nc(-c3cccs3)nn2c1=O [Compound 5629-0544]", "group-label": "Satisfied"}
{"compound": "O=C(O)CCc1nc(-c2cccs2)no1 [Compound C066-2523]", "group-label": "Satisfied"}
{"compound": "COC(=O)c1sc(=S)n(-c2ccc(Cl)c(Cl)c2)c1N [Compound K286-4369]", "group-label": "Not satisfied"}
{"compound": "Cc1cc(C(=O)Nc2cccnc2Cl)no1 [Compound C226-2576]", "group-label": "Not satisfied"}
{"compound": "Nc1nc(F)cc(Oc2ccc(F)cc2)n1 [Compound 1544-0071]", "group-label": "Not satisfied"}
{"compound": "Nc1cc(O)nc(SCC(=O)N2CCOCC2)n1 [Compound 3996-0165]", "group-label": "Not satisfied"}
{"compound": "O=C(c1cnc(Nc2ccc(F)cc2)c2ccccc12)n1ccnc1 [Compound C066-1627]", "group-label": "Not satisfied"}
{"compound": "O=C1CSC(c2ccc(Cl)cc2Cl)N1c1ccc(Cl)cc1 (stereo not shown) [Compound 8004-9890]", "group-label": "Satisfied"}
{"compound": "CCCCN1CCc2nc3c(ccc4ccccc43)c(O)c2C1 [Compound 3453-1352]", "group-label": "Satisfied"}
{"compound": "Cc1nc2c(ccc3ccccc32)c(O)c1CN1CCOCC1 [Compound 3453-1337]", "group-label": "Satisfied"}
{"compound": "O=C1OC(c2ccc(Cl)cc2Cl)=N/C1=C\\c1cccs1 [Compound K075-5819]", "group-label": "Not satisfied"}
{"compound": "O=C1/C(=C\\c2ccco2)SC(=S)N1c1cccc(F)c1 [Compound 2027-0159]", "group-label": "Not satisfied"}
{"compound": "Oc1ccc(-c2nc3ncccn3c2Nc2ccc(Cl)cc2)cc1 [Compound C239-0727]", "group-label": "Not satisfied"}
{"compound": "COc1ccc(C2NC(C(=O)O)CS2)cc1OC (stereo not shown) [Compound K085-0007]", "group-label": "Not satisfied"}
{"compound": "COc1ccc(/C=C2\\SC(=S)N(c3ccc(O)cc3)C2=O)cc1 [Compound 2189-0710]", "group-label": "Not satisfied"}
{"compound": "O=C(NC(c1cccc([N+](=O)[O-])c1)c1cc(Cl)c2cccnc2c1O)c1cccnc1 (stereo not shown) [Compound K839-0117]", "group-label": "Satisfied"}
